# credit: patent US20190062438A1

Items are presented alongside their recorded IC50 GM-CSF, TF-1 proliferation.
tested on: T1, human CD131 (human, UniProt P32927 17-897)
T1 sequence: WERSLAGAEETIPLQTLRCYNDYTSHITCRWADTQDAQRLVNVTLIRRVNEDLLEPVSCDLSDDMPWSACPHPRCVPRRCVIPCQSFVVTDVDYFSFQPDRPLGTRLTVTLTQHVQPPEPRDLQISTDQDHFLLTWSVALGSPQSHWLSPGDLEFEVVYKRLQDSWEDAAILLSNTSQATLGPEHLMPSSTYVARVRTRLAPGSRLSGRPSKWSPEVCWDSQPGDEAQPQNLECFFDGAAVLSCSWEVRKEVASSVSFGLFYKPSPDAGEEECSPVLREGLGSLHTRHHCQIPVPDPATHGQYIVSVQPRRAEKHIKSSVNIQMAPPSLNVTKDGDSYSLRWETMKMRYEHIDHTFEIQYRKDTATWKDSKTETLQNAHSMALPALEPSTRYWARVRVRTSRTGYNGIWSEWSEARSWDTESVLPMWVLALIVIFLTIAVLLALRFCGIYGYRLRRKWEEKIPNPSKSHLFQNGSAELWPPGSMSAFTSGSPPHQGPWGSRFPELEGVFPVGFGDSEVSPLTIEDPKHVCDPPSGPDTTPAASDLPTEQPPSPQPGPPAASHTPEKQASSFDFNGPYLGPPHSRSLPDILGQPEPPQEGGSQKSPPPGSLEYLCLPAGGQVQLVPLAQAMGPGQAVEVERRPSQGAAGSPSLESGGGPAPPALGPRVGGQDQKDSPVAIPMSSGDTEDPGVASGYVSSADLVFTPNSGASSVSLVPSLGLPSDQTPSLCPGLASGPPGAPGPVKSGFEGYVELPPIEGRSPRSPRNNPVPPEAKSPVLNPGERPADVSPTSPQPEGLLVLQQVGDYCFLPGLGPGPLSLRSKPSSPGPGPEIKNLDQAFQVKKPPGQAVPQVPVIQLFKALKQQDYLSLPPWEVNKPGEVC
protocol notes: cell-based or functional assay
# number only, unit nM dropped from output

Solved cases (2 shown):
binder="9A2-VR24.82 (antibody, V domains shown) VH: EVQLLESGGGLVQPGGSLRLSCAASGFTFPWYRVHWVRQAPGKGLEWVSSIKHGGRYTYYADSVKGRFTISRDNSKNTLYLQMNSLRAEDTAVYYCARFYDSFFDIWGQGTMVTVSS VL: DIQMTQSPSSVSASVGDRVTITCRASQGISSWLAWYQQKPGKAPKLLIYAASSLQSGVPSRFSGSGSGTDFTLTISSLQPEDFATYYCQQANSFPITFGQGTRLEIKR" value_observed=3.99
binder="9A2-VR24.110 (antibody, V domains shown) VH: EVQLLESGGGLVQPGGSLRLSCAASGFTFPWYRVHWVRQAPGKGLEWVSSIRSSGGFPYYNNHVKGRFTISRDNSKNTLYLQMNSLRAEDTAVYYCARFYDSFFDIWGQGTMVTVSS VL: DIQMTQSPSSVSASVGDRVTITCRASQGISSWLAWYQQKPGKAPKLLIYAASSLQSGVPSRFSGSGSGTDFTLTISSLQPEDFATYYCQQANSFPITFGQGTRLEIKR" value_observed=0.24

I'd like to know its IC50 GM-CSF, TF-1 proliferation. The binder in question is 9A2-VR39.110 (antibody, V domains shown) VH: EVQLLESGGGLVQPGGSLRLSCAASGFTFVWYHHIWVRQAPGKGLEWVSSINGRGRVTYYADSVKGRFTISRDNSKNTLYLQMNSLRAEDTAVYYCARFYDSFFDIWGQGTMVTVSS VL: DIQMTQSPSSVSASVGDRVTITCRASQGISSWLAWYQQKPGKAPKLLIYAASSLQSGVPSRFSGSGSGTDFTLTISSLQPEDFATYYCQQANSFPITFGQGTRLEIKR
0.28
